- Measured on: human TLR9 (Homo sapiens (Human), UniProt Q9NR96)
- Sequence (Q9NR96 26-1032): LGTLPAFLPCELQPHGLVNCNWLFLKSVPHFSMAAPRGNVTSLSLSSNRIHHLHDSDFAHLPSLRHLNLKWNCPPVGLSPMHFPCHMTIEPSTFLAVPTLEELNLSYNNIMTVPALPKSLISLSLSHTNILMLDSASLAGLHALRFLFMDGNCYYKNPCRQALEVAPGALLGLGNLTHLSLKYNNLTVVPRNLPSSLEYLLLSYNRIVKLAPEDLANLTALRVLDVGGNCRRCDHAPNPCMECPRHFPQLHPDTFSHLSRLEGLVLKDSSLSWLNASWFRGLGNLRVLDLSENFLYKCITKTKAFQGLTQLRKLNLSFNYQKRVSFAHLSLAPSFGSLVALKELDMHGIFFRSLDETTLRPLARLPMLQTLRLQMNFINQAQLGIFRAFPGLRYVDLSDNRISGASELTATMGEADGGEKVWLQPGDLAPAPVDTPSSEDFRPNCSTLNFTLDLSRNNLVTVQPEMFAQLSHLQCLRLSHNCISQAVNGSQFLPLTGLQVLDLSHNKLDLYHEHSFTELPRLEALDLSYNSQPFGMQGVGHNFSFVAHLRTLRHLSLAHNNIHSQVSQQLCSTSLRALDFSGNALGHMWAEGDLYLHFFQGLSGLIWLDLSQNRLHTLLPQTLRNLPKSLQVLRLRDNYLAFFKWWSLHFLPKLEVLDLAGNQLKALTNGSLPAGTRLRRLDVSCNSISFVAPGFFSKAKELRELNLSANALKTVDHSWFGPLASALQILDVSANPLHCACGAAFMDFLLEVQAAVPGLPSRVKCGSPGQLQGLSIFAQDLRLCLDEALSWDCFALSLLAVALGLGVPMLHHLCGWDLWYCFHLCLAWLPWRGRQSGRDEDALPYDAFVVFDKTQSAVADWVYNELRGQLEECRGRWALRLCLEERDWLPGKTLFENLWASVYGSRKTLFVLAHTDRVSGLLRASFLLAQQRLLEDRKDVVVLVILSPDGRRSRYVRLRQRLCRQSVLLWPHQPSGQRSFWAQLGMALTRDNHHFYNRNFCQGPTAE
- Assay comment: TLR9 inhibition reporter assay (HEK-Blue cells, SEAP reporter, ODN2006 stimulation);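 also: compounds tested over 0.05 nM to 50 µM, 22 h incubation, inhibition taken as SEAP signal drop from agonist plus DMSO wells toward a known inhibitor control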
- Test conditions: read-out: TLR9 IC50, HEK-Blue cells overexpressing human TLR9, ODN2006 5 nM
pIC50: −log10 of the molar value.
Decide using pIC50: a value greater than or equal to 6 is y, a smaller one is n.

>  <Molecule>
Cc1cc(-c2[nH]c3ccc(C4CCN(C(=O)Cn5ccc(C6CC6)n5)CC4)cc3c2C(C)C)cc(C)n1 [Example 162]

>  <Measured on>
human TLR9 (Homo sapiens (Human), UniProt Q9NR96)

>  <Class label>
n

$$$$
>  <Molecule>
Cc1cc(-c2[nH]c3ccc(C4CCN(CC(=O)N(CCO)C(C)C)CC4)cc3c2C(C)C)cc(C)n1 [Example 299]

>  <Measured on>
human TLR9 (Homo sapiens (Human), UniProt Q9NR96)

>  <Class label>
n

$$$$
>  <Molecule>
Cc1cc(-c2[nH]c3ccc(C4CCN(C(C)C)CC4)cc3c2C(C)C)c(C)cn1 [Example 641]

>  <Measured on>
human TLR9 (Homo sapiens (Human), UniProt Q9NR96)

>  <Class label>
n

$$$$
>  <Molecule>
Cc1cc(-c2cc3cc(C4CCNCC4)ccc3[nH]2)cc(C)n1 [Example 94]

>  <Measured on>
human TLR9 (Homo sapiens (Human), UniProt Q9NR96)

>  <Class label>
y

$$$$

Shift focus to the following entry.
Incoming: Can Cc1cc(-c2[nH]c3ccc(C4CCN(Cc5cncs5)CC4)cc3c2C(C)C)c(C)cn1 [Example 687] be said to have pIC50 at or above 6?
Outgoing: n

* * *

- Measured on: human TLR8 (Homo sapiens (Human))
- Sequence (Q9NR97 27-1041): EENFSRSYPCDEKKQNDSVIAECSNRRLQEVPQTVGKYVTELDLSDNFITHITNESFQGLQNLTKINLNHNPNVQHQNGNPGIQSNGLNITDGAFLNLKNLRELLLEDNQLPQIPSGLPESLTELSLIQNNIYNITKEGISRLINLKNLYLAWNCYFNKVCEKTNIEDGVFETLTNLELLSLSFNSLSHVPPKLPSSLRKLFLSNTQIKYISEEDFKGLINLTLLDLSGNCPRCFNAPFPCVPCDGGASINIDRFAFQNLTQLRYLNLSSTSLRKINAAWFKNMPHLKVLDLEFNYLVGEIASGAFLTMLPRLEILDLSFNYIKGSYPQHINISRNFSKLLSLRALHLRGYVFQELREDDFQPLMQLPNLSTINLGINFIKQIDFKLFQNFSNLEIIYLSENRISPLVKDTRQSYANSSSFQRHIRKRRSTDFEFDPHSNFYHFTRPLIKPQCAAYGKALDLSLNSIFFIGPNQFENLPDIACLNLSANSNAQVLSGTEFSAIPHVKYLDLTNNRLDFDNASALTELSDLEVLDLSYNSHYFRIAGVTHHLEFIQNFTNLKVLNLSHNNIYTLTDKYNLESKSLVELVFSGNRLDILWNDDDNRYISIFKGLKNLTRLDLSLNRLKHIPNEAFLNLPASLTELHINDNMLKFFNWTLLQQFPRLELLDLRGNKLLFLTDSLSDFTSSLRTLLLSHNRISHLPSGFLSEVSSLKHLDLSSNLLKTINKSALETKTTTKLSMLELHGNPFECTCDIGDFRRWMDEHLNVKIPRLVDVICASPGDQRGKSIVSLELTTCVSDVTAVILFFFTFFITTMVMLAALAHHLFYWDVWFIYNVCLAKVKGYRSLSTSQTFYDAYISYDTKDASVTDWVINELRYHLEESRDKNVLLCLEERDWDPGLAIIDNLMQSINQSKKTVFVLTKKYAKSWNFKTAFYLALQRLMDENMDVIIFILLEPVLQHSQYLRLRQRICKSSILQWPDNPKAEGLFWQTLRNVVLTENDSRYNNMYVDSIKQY
- Assay comment: TLR8 inhibition reporter assay (HEK-Blue cells, SEAP reporter, R848 stimulation);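 also: compounds tested from 0.05 nM to 50 µM, 22 h at 37 °C, SEAP measured with HEK-Blue Detection, inhibition relative to agonist plus DMSO versus a known inhibitor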
- Test conditions: read-out: TLR8 IC50, HEK-Blue cells overexpressing human TLR8, R848 15.9 μM
Experimental readout: IC50 (nM)
Give bare numbers, in nM.

Study these solved cases before continuing.
>  <Molecule>
Cc1cc(-c2[nH]c3ccc(C4CCN(C5CCCOC5)CC4)cc3c2C(C)C)c(F)cn1 (stereo not shown)

>  <Unit label>
nM

>  <IC50>
3.5

$$$$
>  <Molecule>
COCCOCC(=O)N1CCC(c2ccc3[nH]c(-c4cc(C)nc(C)c4)c(C(C)C)c3c2)CC1

>  <Unit label>
nM

>  <IC50>
82.5

$$$$
>  <Molecule>
Cc1cc(-c2[nH]c3ccc(C4CCNCC4)cc3c2CC2CC2)ccn1

>  <Unit label>
nM

>  <IC50>
10.7

$$$$

Incoming: Looking for the measured IC50 of Cc1cc(-c2[nH]c3ccc(C4CCN(CC5CCC5)CC4)cc3c2C(C)C)cc(C)n1 , can you help?
Outgoing: 5.8

* * *

Exercise: for every item that follows, state its recorded pIC50.
- Measured on: human TLR9 (Homo sapiens (Human))
- Assay comment: TLR9 inhibition reporter assay (HEK-Blue cells, SEAP reporter, ODN2006 stimulation)
- Test conditions: read-out: TLR9 IC50, HEK-Blue cells overexpressing human TLR9, ODN2006 5 nM
Answers are plain numbers, as −log10 of the molar value.

Reference set, count: 5
>  <Molecule>
Cc1cc(-c2[nH]c3ccc(C4CCN(C(=O)CN5CC(C(F)(F)F)C[C@@H]5CO)CC4)cc3c2C(C)C)cc(C)n1 (stereo partly drawn)

>  <Experimental readout>
pIC50

>  <Meas value>
4.95

$$$$
>  <Molecule>
Cc1cc(-c2[nH]c3ccc(C4CCN(C(=O)CNC[C@@H](O)CO)CC4)cc3c2C(C)C)ccn1

>  <Experimental readout>
pIC50

>  <Meas value>
5.84

$$$$
>  <Molecule>
Cc1cc(-c2[nH]c3ccc(C4CCN(CC(=O)N(C)C)CC4)cc3c2C(C)C)cc(F)n1

>  <Experimental readout>
pIC50

>  <Meas value>
5.48

$$$$
>  <Molecule>
Cc1cc(-c2[nH]c3ccc(C4CCN(C(=O)[C@@H](N)CCCN)CC4)cc3c2C(C)C)ccn1

>  <Experimental readout>
pIC50

>  <Meas value>
5.09

$$$$
>  <Molecule>
CC(C)c1c(-c2ccncc2NC(=O)C(C)(C)C)[nH]c2ccc(C3CCNCC3)cc12

>  <Experimental readout>
pIC50

>  <Meas value>
5.21

$$$$

Please give pIC50 for each item listed below.
1. Cc1cc(-c2[nH]c3ccc(C4CCN(C5CCCN(C(C)C)C5)CC4)cc3c2C(C)C)ccn1 (stereo not drawn)
2. CCc1c(-c2cc(C)nc(C)c2)[nH]c2ccc(C3CCN(C(=O)CN(C)C)CC3)cc12

Outgoing:
[6.66, 6.82]
